The following compounds are shown together with reported pIC50 values.
Target: Norovirus polymerase (NoVpol, genotype II) (Lordsdale virus)
Experiment: biochemical
Details: 50 nM recombinant enzyme, 2.5 hours at 30° C.; read-out: IC50
pIC50: −log10 of the molar value.

C[C@]1(N)[C@H](n2ccc(N)nc2=O)O[C@](F)(COP(=O)(O)OP(=O)(O)OP(=O)(O)O)[C@H]1O [Compound 303a]	4.00 to 5.00
Nc1nc2c(ncn2[C@@H]2O[C@](CCl)(COP(=O)(O)OP(=O)(O)OP(=O)(O)O)[C@@H](O)[C@H]2F)c(=O)[nH]1 [Compound 116a]	5.00 to 6.00

Now look at this one.
Challenge: # lookup: pIC50 of Nc1nc(=O)n([C@@H]2O[C@](CCl)(COP(=O)(O)OP(=O)(O)OP(=O)(O)O)[C@@H](O)[C@H]2F)cc1F [Compound 97g]
Response given: 5.00 to 6.00

* * *

System: Murine norovirus (MNV-1)
Experiment: Norovirus MNV-1 antiviral assay (CPE reduction, CellTiter-Glo, RAW 264.7 cells)
Assay type: cell-based
Settings: RAW 264.7 cells infected with MNV-1 (MOI of 0.001), 3 days; read-out: EC50
pEC50: −log10 of the molar value.
Quick reference: pEC50 of the listed items.

See these solved cases before continuing.
CCOc1nc(N)nc2c1ncn2[C@@H]1O[C@]2(F)CO[P@](=O)(OC(C)C)O[C@H]2[C@@]1(C)F [Compound 149a]	4.00 to 5.00
N#C[C@@]1(n2ccc(N)nc2=O)O[C@@](CO)(CF)[C@@H](O)[C@H]1O [Compound 376a]	4.00 to 5.00

In the following, a different compound is considered.
Challenge: Need pEC50 of CCOc1nc(N)nc2c1ncn2[C@@H]1O[C@](F)(CO[P@@](=O)(N[C@@H](C)C(=O)OC2CCCCC2)Oc2ccccc2)[C@@H](O)[C@@]1(C)F [Compound 141a] , thanks.
Response given: 5.00 to 6.00

* * *

Test system: Murine norovirus (MNV-1)
Assay: Norovirus MNV-1 antiviral assay (CPE reduction, CellTiter-Glo, RAW 264.7 cells)
Type: cell-based
Details: MNV-1, RAW264.7, 72 h
pEC50: −log10 of the molar value.
measuredQuantity: pEC50

CCOc1nc(N)nc2c1ncn2[C@@H]1O[C@](F)(CO[P@](=O)(N[C@@H](C)C(=O)OC2CCCCC2)Oc2ccccc2)[C@@H](O)[C@@]1(C)F [Compound 140a]	5.00 to 6.00

Now take the following molecule into account.
Challenge: Murine norovirus (MNV-1) / pEC50 / C#C[C@]1(O)[C@H](n2ccc(=O)[nH]c2=O)O[C@](F)(COP(=O)(N[C@@H](C)C(=O)OC2CCCCC2)Oc2ccccc2)[C@H]1O (some centres unmarked) [Compound 131a] : value?
Response given: 4.00 to 5.00

* * *

The compounds listed here are annotated with their IC50.
Target: Norovirus polymerase (NoVpol, genotype II) (Lordsdale virus, UniProt P54634)
Sequence (P54634 1190-1699 limits assumed): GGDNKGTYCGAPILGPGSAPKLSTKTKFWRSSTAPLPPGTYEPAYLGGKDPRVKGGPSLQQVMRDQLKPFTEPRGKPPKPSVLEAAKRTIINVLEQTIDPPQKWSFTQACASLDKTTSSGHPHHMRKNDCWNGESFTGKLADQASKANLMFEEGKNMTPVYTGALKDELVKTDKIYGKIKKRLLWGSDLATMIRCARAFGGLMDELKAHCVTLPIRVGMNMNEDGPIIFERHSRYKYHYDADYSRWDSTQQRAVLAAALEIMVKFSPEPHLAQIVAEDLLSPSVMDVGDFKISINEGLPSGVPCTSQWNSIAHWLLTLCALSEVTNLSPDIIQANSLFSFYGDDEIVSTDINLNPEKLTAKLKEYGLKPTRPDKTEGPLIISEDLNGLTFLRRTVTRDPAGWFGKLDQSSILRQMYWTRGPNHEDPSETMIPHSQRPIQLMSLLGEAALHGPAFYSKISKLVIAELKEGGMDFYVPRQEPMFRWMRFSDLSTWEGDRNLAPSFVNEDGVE
Assay: biochemical

C#C[C@@]1(O)[C@H](O)[C@@H](COP(O)(=S)OP(=O)(O)OP(=O)(O)O)O[C@H]1n1ccc(=O)[nH]c1=O (some centres unmarked) [Compound 286a]	1 to 10 µM
C[C@]1(O)C(n2ccc(=O)[nH]c2=O)O[C@H](COP(=O)(O)OP(=O)(O)OP(=O)(O)O)[C@H]1O (some centres unmarked) [Compound 260a]	1 to 10 µM
Nc1ccn([C@@H]2O[C@](CF)(COP(=O)(O)OP(=O)(O)OP(=O)(O)O)[C@@H](O)[C@H]2F)c(=O)n1 [Compound 56c]	< 1 µM
C[C@@]1(O)[C@H](O)[C@@](CF)(CO[P@](O)(=S)OP(=O)(O)OP(=O)(O)O)O[C@H]1n1ccc(=O)[nH]c1=O [Compound 171a]	< 1 µM

Now consider the entry below.
Challenge: Tell me the measured IC50 of CC[C@]1(COP(=O)(O)OP(=O)(O)OP(=O)(O)O)O[C@@H](n2ccc(=O)[nH]c2=O)[C@H](F)[C@@H]1O [Compound 37a] , please.
Response given: 1 to 10 µM

* * *

Recorded IC50 by entry
Target: Norovirus polymerase (NoVpol, genotype II) (Lordsdale virus, UniProt P54634)
Experiment: biochemical
Details: 50 nM recombinant enzyme, 2.5 hours at 30° C.; read-out: IC50

# example entries with known answers
O=c1ccn([C@@H]2O[C@](CCl)(COP(=O)(O)OP(=O)(O)OP(=O)(O)O)[C@@H](O)[C@H]2F)c(=O)[nH]1 [Compound 56a]	1000 to 10000 nM
[N-]=[N+]=N[C@]1(COP(=O)(O)OP(=O)(O)OP(=O)(O)O)O[C@@H](n2ccc(=O)[nH]c2=O)[C@H](F)[C@@H]1O [Compound 267a]	< 1000 nM
Cc1cn([C@@H]2O[C@](CCl)(COP(=O)(O)OP(=O)(O)OP(=O)(O)O)[C@@H](O)[C@H]2F)c(=O)nc1N [Compound 97d]	1000 to 10000 nM
C#C[C@@]1(O)[C@H](O)[C@@H](COP(=O)(O)OP(=O)(O)OP(=O)(O)O)O[C@H]1n1cnc2c(N)ncnc21 [Compound 289a]	< 1000 nM
C#C[C@@]1(O)[C@H](O)[C@@H](COP(=O)(O)OP(=O)(O)OP(=O)(O)O)O[C@H]1n1ccc2c(N)ncnc21 [Compound 292a]	< 1000 nM
O=c1[nH]cnc2c1ncn2[C@@H]1O[C@](CCl)(COP(=O)(O)OP(=O)(O)OP(=O)(O)O)[C@@H](O)[C@H]1F [Compound 98b]	1000 to 10000 nM

Challenge: Entry C#C[C@@]1(O)[C@H](O)[C@@](CCl)(COP(=O)(O)OP(=O)(O)OP(=O)(O)O)O[C@H]1n1cnc2c(N)ncnc21 [Compound 342a] has what IC50?
Response given: < 1000 nM

Challenge: Fill in: IC50 of C#C[C@]1(O)[C@H](n2cnc3c(=O)[nH]c(N)nc32)O[C@](F)(COP(=O)(O)OP(=O)(O)OP(=O)(O)O)[C@H]1O [Compound 236a] is ___
Response given: < 1000 nM

Challenge: Requested read-out: IC50. Entry: CC#C[C@@]1(O)[C@H](O)[C@@](CF)(COP(=O)(O)OP(=O)(O)OP(=O)(O)O)O[C@H]1n1ccc(=O)[nH]c1=O [Compound 349a]
Response given: < 1000 nM

Challenge: Consider the compound [N-]=[N+]=NC[C@]1(COP(=O)(O)OP(=O)(O)OP(=O)(O)O)O[C@@H](n2ccc(N)nc2=O)[C@H](F)[C@@H]1O [Compound 115a] and give its measured IC50.
Response given: 1000 to 10000 nM

Challenge: Look up IC50 for this compound: Nc1ccn([C@@H]2O[C@](CF)(COP(=O)(O)OP(=O)(O)OP(=O)(O)O)[C@@H](O)C2(F)F)c(=O)n1 [Compound 227a]
Response given: 1000 to 10000 nM

Challenge: Can you share its IC50? I mean this compound: C[C@@]1(O)[C@H](O)[C@@](CF)(COP(=O)(O)OP(=O)(O)OP(=O)(O)O)O[C@H]1n1ccc2c(N)ncnc21 [Compound 351a]
Response given: < 1000 nM

Challenge: Suppose we examine the compound [N-]=[N+]=N[C@]1(COP(=O)(O)OP(=O)(O)OP(=O)(O)O)O[C@@H](n2ccc(N)nc2=O)[C@@H](O)[C@@H]1O [Compound 270a] ; what IC50 value has been reported?
Response given: < 1000 nM

Challenge: // returns reported IC50 for input [N-]=[N+]=N[C@]1(COP(=O)(O)OP(=O)(O)OP(=O)(O)O)O[C@@H](n2ccc(N)nc2=O)[C@H](O)[C@@H]1O [Compound 383a]
Response given: < 1000 nM

Challenge: // query IC50 value for entry CO[C@]1(COP(=O)(O)OP(=O)(O)OP(=O)(O)O)O[C@@H](n2ccc(N)nc2=O)[C@H](F)[C@@H]1O [Compound 36d]
Response given: 1000 to 10000 nM

Challenge: What does the data say about its IC50? Entry: [N-]=[N+]=NC[C@]1(COP(=O)(O)OP(=O)(O)OP(=O)(O)O)O[C@@H](n2ccc(=O)[nH]c2=O)[C@H](F)[C@@H]1O [Compound 114a]
Response given: < 1000 nM

Challenge: So what does the record say about IC50 for C[C@]1(F)[C@H](n2ccc(=O)[nH]c2=O)O[C@](F)(COP(=O)(O)OP(=O)(O)OP(=O)(O)O)[C@H]1O [Compound 242a] ?
Response given: 10000 to 100000 nM

Challenge: Which IC50 is listed for [N-]=[N+]=N[C@]1(COP(=O)(O)OP(=O)(O)OP(=O)(O)O)O[C@@H](n2cnc3c(=O)[nH]c(N)nc32)[C@H](O)[C@@H]1O [Compound 268a] ?
Response given: < 1000 nM

Challenge: Endpoint output: IC50 of C[C@]1(COP(=O)(O)OP(=O)(O)OP(=O)(O)O)O[C@@H](n2cnc3c(=O)[nH]c(N)nc32)[C@H](O)[C@@H]1O [Compound 334a] . Value?
Response given: < 1000 nM

Challenge: Tell me the measured IC50 of C#C[C@]1(COP(=O)(O)OP(=O)(O)OP(=O)(O)O)O[C@@H](n2ccc(N)nc2=O)[C@H](F)[C@@H]1O [Compound 36c] , please.
Response given: 1000 to 10000 nM

Challenge: If you can, please state the reported IC50 value of Nc1ccn([C@@H]2O[C@](CF)(COP(=O)(O)OP(=O)(O)OP(=O)(O)O)[C@@H](O)[C@]2(O)CF)c(=O)n1 [Compound 355a] .
Response given: < 1000 nM

Challenge: // query IC50 value for entry C=C[C@]1(COP(=O)(O)OP(=O)(O)OP(=O)(O)O)O[C@@H](n2cnc3c(=O)[nH]c(N)nc32)[C@H](F)[C@@H]1O [Compound 34a]
Response given: < 1000 nM

Challenge: Item C=C[C@]1(COP(=O)(O)OP(=O)(O)OP(=O)(O)O)O[C@@H](n2ccc(=O)[nH]c2=O)C(F)(F)[C@@H]1O [Compound 221a] has what recorded IC50?
Response given: 1000 to 10000 nM

Challenge: Which IC50 value belongs to C[C@]1(O)[C@H](n2cnc3c(N)ncnc32)O[C@](F)(COP(=O)(O)OP(=O)(O)OP(=O)(O)O)[C@H]1O [Compound 333a] ?
Response given: 1000 to 10000 nM

Challenge: What value of measured IC50 is listed for C=C[C@]1(O)[C@H](n2ccc(=O)[nH]c2=O)O[C@](F)(COP(=O)(O)OP(=O)(O)OP(=O)(O)O)[C@H]1O [Compound 330a] ?
Response given: 1000 to 10000 nM
